- study system: human NOX4 (Homo sapiens, UniProt Q9NPH5)
- Construct: The full-length human NOX4 (NM_016931.3) transcript was cloned
- Sequence (Q9NPH5 1-578): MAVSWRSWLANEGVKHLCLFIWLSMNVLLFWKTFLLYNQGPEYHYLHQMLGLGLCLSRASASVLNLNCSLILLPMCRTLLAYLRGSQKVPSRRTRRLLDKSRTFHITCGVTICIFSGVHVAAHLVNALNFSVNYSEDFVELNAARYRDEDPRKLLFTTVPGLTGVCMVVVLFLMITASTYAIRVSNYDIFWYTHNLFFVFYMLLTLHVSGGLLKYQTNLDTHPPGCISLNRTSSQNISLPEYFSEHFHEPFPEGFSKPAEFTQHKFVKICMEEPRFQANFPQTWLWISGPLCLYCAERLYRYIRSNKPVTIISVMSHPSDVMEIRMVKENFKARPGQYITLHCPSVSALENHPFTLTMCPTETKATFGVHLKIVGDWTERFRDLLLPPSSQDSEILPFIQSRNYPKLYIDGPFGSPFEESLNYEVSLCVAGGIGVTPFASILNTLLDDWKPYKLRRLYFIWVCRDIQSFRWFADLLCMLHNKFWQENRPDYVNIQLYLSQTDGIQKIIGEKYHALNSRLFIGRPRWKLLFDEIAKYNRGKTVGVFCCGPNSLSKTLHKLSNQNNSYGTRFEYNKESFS
- Sequence (P13498 1-195 partner): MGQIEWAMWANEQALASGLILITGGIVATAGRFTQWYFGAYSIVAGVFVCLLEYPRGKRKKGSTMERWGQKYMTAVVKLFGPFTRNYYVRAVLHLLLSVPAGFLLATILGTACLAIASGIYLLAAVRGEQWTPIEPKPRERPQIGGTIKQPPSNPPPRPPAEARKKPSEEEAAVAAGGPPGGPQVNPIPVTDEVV
- experiment: Amplex Red activity assay (cellular H2O2 formation in hNOX4 T-REx-293 cells)
- particulars: tet-induced 24 h, extracellular H2O2 by Amplex Red, 60 min 25° C., geometric mean if determined several times
reported endpoint: IC50 (nM)

Solved cases (6 shown):
CN1CCOc2ccc(C(=O)Nc3ccc4oc(N5CCC(F)(F)CC5)nc4c3)cc21 ... 3390
O=C(Nc1ccc2oc(N3CCCC4(CCO4)C3)nc2c1)c1ccc2c(c1)CCO2 (centres unmarked) ... 804
O=C(Nc1ccc2oc(N3CCCC34COC4)nc2c1)c1ccc2c(c1)CCO2 ... 352
COC1CCN(c2nc3cc(NC(=O)c4ccc5c(c4)N(C)CCO5)ccc3o2)CC1 ... 4380
O=C(Nc1ccc2oc(N3CC(c4ccccc4)C3)nc2c1)c1ccc2c(c1)CCO2 ... 1230
O=C(Nc1ccc2oc(N3CC(N4CCOCC4)C3)nc2c1)c1ccc2c(c1)CCO2 ... 2300

P = COC1CCN(c2nc3cc(C(=O)Nc4ccc5c(c4)OCCO5)ccc3s2)CC1
Q = CN1CCN(c2nc3cc(NC(=O)c4ccc5c(c4)N(C)CCO5)ccc3o2)CC1
R = O=C(Nc1ccc2oc(N3CCC4(COC4)C3)nc2c1)c1ccc2c(c1)CCO2
S = COCC1CCCN1c1nc2cc(NC(=O)c3ccc4c(c3)CCO4)ccc2o1 (centres unmarked)
// sort entries: IC50, high to low To answer, write out the labels according to the requested order.
P, Q, S, R
(P: 26800 nM, Q: 4040 nM, S: 1330 nM, R: 505 nM)

a = CC1(O)CN(c2nc3cc(NC(=O)c4ccc5c(c4)CCO5)ccc3o2)C1
b = O=C(Nc1ccc2c(c1)CCO2)c1ccc2sc(N3CCS(=O)(=O)CC3)nc2c1
Of a versus b , which is the one with smaller reported IC50? I would appreciate it if you answered with the label of your choice.
a
(a: 688 nM, b: 23900 nM)

I = CC(C)(O)C1CN(c2nc3cc(NC(=O)c4ccc5c(c4)CCO5)ccc3o2)C1
II = COC1CCCN(c2nc3cc(NC(=O)c4ccc5c(c4)CCO5)ccc3s2)C1 (centres unmarked)
Compare I and II by numeric IC50 and name the larger one. Refer to your chosen entry by its label in the reply.
II
(II: 2540 nM, I: 851 nM)

a = O=C(Nc1ccc2oc(N3CC[C@@H](O)C3)nc2c1)c1ccc2c(c1)CCO2
b = O=C(Nc1ccc2oc(N3CCCC(F)(F)C3)nc2c1)c1ccc2c(c1)OCCO2
Could you please tell me which of these two has the higher IC50: a or b ? Please reply using the label of the selected record.
b
(b: 1140 nM, a: 573 nM)

// data source = patent US11136317B2
